FYI, the data here is from ChEMBL document CHEMBL2401674.

# System: Candida albicans
# protocol: Antifungal activity against Candida albicans SC5314 assessed as growth inhibition after 48 hrs in presence of 2% potassium acetate
# Assay type: functional
# assay context: SC5314, 48 h
experimental endpoint: MIC (µg/mL)

Sample answers from the record:
| molecule | observed result |
| --- | --- |
| COC(=O)C1=C(c2cc(Br)c(O)c(Br)c2)C(=O)OC1=C(c1cc(Br)c(O)c(Br)c1)c1cc(Br)c(O)c(Br)c1 [CADIOLIDE I] | 50 |
| O=C(O)CC[N+](=O)[O-] | 200 |
| COC(=O)/C(C(=O)c1cc(Br)c(O)c(Br)c1)=C(\C(=O)OC)c1cc(Br)c(O)c(Br)c1 | 100 |
| C[C@@H]1[C@H](O)[C@@H](C)/C=C/C=C/C=C/C=C/C=C/C=C/C=C/[C@H](O[C@@H]2O[C@H](C)[C@@H](O)[C@H](N)[C@@H]2O)C[C@@H]2O[C@](O)(C[C@@H](O)C[C@@H](O)[C@H](O)CC[C@@H](O)C[C@@H](O)CC(=O)O[C@H]1C)C[C@H](O)[C@H]2C(=O)O [AMPHOTERICIN B] | 1.56 |
| COc1c(Br)cc([C@H](O)C2=C(c3ccc(O)c(Br)c3)/C(=C/c3ccc(O)c(Br)c3)OC2=O)cc1Br [CADIOLIDE G] | 50 |

[A] COC(=O)/C(C(=O)c1cc(Br)c(O)c(Br)c1)=C(\C(=O)OC)c1ccc(O)c(Br)c1
[B] COc1ccc(/C=C2\OC(=O)C([C@@H](O)c3cc(Br)c(OC)c(Br)c3)=C2c2cc(Br)c(O)c(Br)c2)cc1
[C] O=C1O/C(=C\c2cc(Br)c(O)c(Br)c2)C(c2ccc(O)c(Br)c2)=C1C(=O)c1cc(Br)c(O)c(Br)c1 [CADIOLIDE E]
(Q) Ranking field: MIC; order: falling. The response must list the labels following the requested ordering.
(A) A, B, C

----------
# test target: Isocitrate lyase (Candida albicans)
# Sequence (Q9P8Q7 whole entry): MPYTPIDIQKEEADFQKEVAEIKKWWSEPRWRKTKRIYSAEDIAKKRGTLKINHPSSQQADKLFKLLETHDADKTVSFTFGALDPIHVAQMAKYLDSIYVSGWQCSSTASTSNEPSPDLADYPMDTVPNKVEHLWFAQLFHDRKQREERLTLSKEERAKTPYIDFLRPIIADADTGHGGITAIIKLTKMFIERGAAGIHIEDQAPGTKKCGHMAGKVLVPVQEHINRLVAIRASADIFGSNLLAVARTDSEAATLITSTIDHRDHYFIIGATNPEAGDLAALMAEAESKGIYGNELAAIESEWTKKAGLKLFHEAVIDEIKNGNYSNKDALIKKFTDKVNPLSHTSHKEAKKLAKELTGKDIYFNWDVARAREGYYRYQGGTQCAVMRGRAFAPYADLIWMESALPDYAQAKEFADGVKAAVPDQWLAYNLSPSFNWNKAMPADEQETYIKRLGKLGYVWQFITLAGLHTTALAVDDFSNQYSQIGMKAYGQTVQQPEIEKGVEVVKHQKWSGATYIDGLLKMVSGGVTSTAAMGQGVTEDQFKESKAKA
# protocol: Inhibition of recombinant Candida albicans ATCC 10231 ICL using phenylhydrazine and isocitrate as substrate assessed as formation of glyoxylate phenylhydrazone after 30 mins by spectrophotometric analysis
pIC50: −log10 of the molar value.
experimental endpoint: pIC50

| compound | observed result |
| --- | --- |
| COc1c(Br)cc([C@H](O)C2=C(c3ccc(O)c(Br)c3)/C(=C/c3ccc(O)c(Br)c3)OC2=O)cc1Br [CADIOLIDE G] | 4.31 |
| O=C1O/C(=C\c2cc(Br)c(O)c(Br)c2)C(c2ccc(O)c(Br)c2)=C1C(=O)c1cc(Br)c(O)c(Br)c1 [CADIOLIDE E] | 5.12 |

[a] COC(=O)/C(C(=O)c1cc(Br)c(O)c(Br)c1)=C(\C(=O)OC)c1cc(Br)c(O)c(Br)c1
[b] COC(=O)C1=C(c2cc(Br)c(O)c(Br)c2)C(=O)OC1=C(c1cc(Br)c(O)c(Br)c1)c1cc(Br)c(O)c(Br)c1 [CADIOLIDE I]
(Q) Please tell me which of the two, a or b , has the higher reported pIC50 value. Which one? Tell me its label.
(A) b

----------
# test target: Isocitrate lyase (Candida albicans)
# protocol: Inhibition of recombinant Candida albicans ATCC 10231 ICL using phenylhydrazine and isocitrate as substrate assessed as formation of glyoxylate phenylhydrazone after 30 mins by spectrophotometric analysis
pIC50: −log10 of the molar value.
experimental endpoint: pIC50

| molecular string | test target | pIC50 |
| --- | --- | --- |
| O=C(O)CC[N+](=O)[O-] | Isocitrate lyase (Candida albicans) | 4.86 |

[I] COc1ccc(/C=C2\OC(=O)C([C@@H](O)c3cc(Br)c(OC)c(Br)c3)=C2c2cc(Br)c(O)c(Br)c2)cc1
[II] COC(=O)/C(C(=O)c1cc(Br)c(O)c(Br)c1)=C(\C(=O)OC)c1ccc(O)c(Br)c1
(Q) For I and II , which recorded pIC50 is lower? Which one? Tell me its label.
(A) II
(II: 3.91, I: 4.77)
